Reported IC50 values, F1F0-ATPase (Bos taurus, UniProt P13621).

Please review the entries below; each comes with its answer.
molecule: CCOCCN/C(=N/C(=O)c1ccc(F)c(F)c1)Nc1n[nH]c2ccccc12 [Compound A-38]
study target: F1F0-ATPase (Bos taurus, UniProt P13621)
IC50: > 16 µM
--
molecule: CC(C)(C)CN/C(=N/C(=O)c1ccc(F)c(F)c1)Nc1n[nH]c2ccc(C(F)(F)F)cc12 [Compound A-52]
study target: F1F0-ATPase (Bos taurus, UniProt P13621)
IC50: < 5 µM
--
molecule: COC[C@H](C)N/C(=N/C(=O)c1ccc(F)c(F)c1)Nc1n[nH]c2cc(C(F)(F)F)ccc12 [Compound 3]
study target: F1F0-ATPase (Bos taurus, UniProt P13621)
IC50: < 5 µM

Then there is this molecule:
Look up and report IC50, with F1F0-ATPase (Bos taurus, UniProt P13621) as system, for CCOCCN/C(=N/C(=O)c1ccc(F)c(F)c1)Nc1n[nH]c2cncc(Cl)c12 [Compound A-44]
> 16 µM

* * *

Recorded pIC50 values for a group of compounds are listed next.
biological target: F1F0-ATPase (Bos taurus)
pIC50: −log10 of the molar value.

Use the examples below as a reference point.
compound: COC[C@H](C)N/C(=N/C(=O)c1ccc(F)c(F)c1)Nc1n[nH]c2cccnc12 [Compound A-48]
pIC50: < 4.80
--
compound: CC(C)N/C(=N/C(=O)c1ccc(Cl)c(F)c1)Nc1n[nH]c2cc(C(F)(F)F)ccc12 [Compound A-18]
pIC50: > 5.30
--
compound: CCOCCCN/C(=N/C(=O)c1ccc(Cl)c(F)c1)Nc1n[nH]c2cc(C(F)(F)F)ccc12 [Compound A-15]
pIC50: > 5.30
--
compound: COCC(C)NC(=NC(=O)c1ccc(F)c(F)c1)Nc1n[nH]c2c(C(F)(F)F)cccc12 (stereo not shown) [Compound A-59]
pIC50: < 4.80
--
compound: COC[C@H](C)N/C(=N/C(=O)c1ccc(F)c(F)c1)Nc1n[nH]c2cc(C(F)(F)F)ccc12 [Compound A-88]
pIC50: < 4.80
--
compound: O=C(/N=C(/Nc1cc(F)cc(Cl)c1)Nc1n[nH]c2ccc(F)cc12)c1ccc(F)c(F)c1 [Compound A-112]
pIC50: > 5.30

# ---- query compound ----
Indicate its recorded pIC50; the compound in question is CC(C)N/C(=N/C(=O)c1ccc(F)c(F)c1)Nc1n[nH]c2c(F)cccc12 [Compound A-76]
> 5.30

* * *

pIC50: −log10 of the molar value.
Each entry below carries its measured pIC50, system: F1F0-ATPase (Bos taurus).

Recorded pIC50, per entry:
molecule: CC(C)(C)N/C(=N/C(=O)c1ccc(Cl)c(F)c1)Nc1n[nH]c2cc(C(F)(F)F)ccc12
study target: F1F0-ATPase (Bos taurus)
pIC50: > 5.30
--
molecule: CC(C)CN/C(=N/C(=O)c1ccc(F)c(F)c1)Nc1n[nH]c2cc(Br)ccc12
study target: F1F0-ATPase (Bos taurus)
pIC50: > 5.30

Consider the record given below.
Provide pIC50, tested on F1F0-ATPase (Bos taurus), for `CCOCCN/C(=N/C(=O)c1cccc(Cl)c1)Nc1n[nH]c2cc(F)ccc12` .
< 4.80
